Here the recorded melting point is given for each entry.

Recorded melting point, per entry:
- COMPOUND: "Oc1ccc2c(c1)OC[C@@H](c1cccc(C(F)(F)F)c1)[C@H]2c1ccc(OCCN2CCCC2)cc1 (racemic)"
  melting point: "87 to 89 °C"
- COMPOUND: "Oc1ccc2c(c1)OC[C@@H](c1ccc(F)cc1)[C@H]2c1ccc(OCCN2CCCCC2)cc1 (racemic)"
  melting point: "146 to 147 °C"
- COMPOUND: "Oc1ccc2c(c1)OC[C@@H](c1ccc(F)cc1)[C@H]2c1ccc(OCCCN2CCCCC2)cc1 (racemic)"
  melting point: "78 to 84 °C"

What value of melting point has been reported for the following compound? Oc1ccc2c(c1)OC[C@@H](c1c(F)c(F)c(F)c(F)c1F)[C@H]2c1ccc(OCCN2CCCC2)cc1 (racemic) 125 °C (dec.)

What value of melting point has been reported for the following compound? Cc1ccc([C@@H]2COc3cc(O)ccc3[C@@H]2c2ccc(OCCN3CCCCC3)cc2)cc1 (racemic) 146 to 147.5 °C

What value of melting point has been reported for the following compound? Oc1ccc2c(c1)OC[C@@H](c1ccc(F)cc1)[C@H]2c1ccc(OCCN2CCCC2)cc1 (racemic) 164 to 167 °C

What value of melting point has been reported for the following compound? Oc1ccc2c(c1)OC[C@@H](c1ccccc1F)[C@H]2c1ccc(OCCN2CCCC2)cc1 (racemic) 190 °C (dec.)

What value of melting point has been reported for the following compound? Oc1ccc2c(c1)OC[C@@H](c1cccc(C(F)(F)F)c1)[C@H]2c1ccc(OCCN2CCCCC2)cc1 (racemic) 118 to 119 °C

What value of melting point has been reported for the following compound? Oc1cccc([C@@H]2COc3cc(O)ccc3[C@@H]2c2ccc(OCCN3CCCCC3)cc2)c1 (racemic) 144 °C (dec.)

What value of melting point has been reported for the following compound? Oc1ccc([C@@H]2COc3cc(O)ccc3[C@@H]2c2ccc(OCCN3CCCC3)cc2)cc1 (racemic) 112 to 116 °C

What value of melting point has been reported for the following compound? Cc1ccc([C@@H]2COc3cc(O)ccc3[C@@H]2c2ccc(OCCN3CCCC3)cc2)cc1 (racemic) 161 to 165 °C

What value of melting point has been reported for the following compound? `Oc1ccc2c(c1)OC[C@@H](c1ccc(C(F)(F)F)cc1)[C@H]2c1ccc(OCCN2CCCC2)cc1` 100 °C (dec.)

What value of melting point has been reported for the following compound? Oc1ccc2c(c1)OC[C@@H](c1cccc(F)c1)[C@H]2c1ccc(OCCN2CCCC2)cc1 (racemic) 146 to 150 °C

What value of melting point has been reported for the following compound? Cc1cccc([C@@H]2COc3cc(O)ccc3[C@@H]2c2ccc(OCCN3CCCC3)cc2)c1 (racemic) 85 to 90 °C

What value of melting point has been reported for the following compound? Oc1ccc2c(c1)OC[C@@H](c1c(F)c(F)c(F)c(F)c1F)[C@H]2c1ccc(OCCN2CCCCC2)cc1 (racemic) 174 °C (dec.)
